Assign melting point to each entry below.

Q) Value lookup for melting point; key = `COc1ccc(F)c([N+](=O)[O-])c1C`
A) 38 to 40 °C

Q) I am curious: what melting point value has been reported for `CCS(=O)(=O)Cc1c(Cl)c(Cl)cc2nc(OC)c(OC)nc12` ?
A) 150 to 152 °C

Q) Fill blank: measured melting point of the compound CC1(C)SC(c2ccc3c(c2)CCC3)NC1C(=O)O (centres undefined) is ____.
A) 140 to 142 °C

Q) Value lookup for melting point; key = `Cc1cc(-c2ccc(C(F)(F)F)nc2)cc(-c2cccc(-c3cccc(S(N)(=O)=O)c3)c2)n1`
A) 227 to 232 °C

Q) Value lookup for melting point; key = `CC(=O)Nc1ccc2ccccc2c1-c1c(P(c2ccccc2)c2ccccc2)ccc2ccccc12`
A) 105 °C

Q) Need melting point of `COc1ccccc1-c1cc2cnc(N)nc2nc1NC(=O)NC(C)(C)C` , thanks.
A) 300 to 301 °C

Q) What value of melting point has been reported for the following compound? `CC(C)(C)NC(=O)[C@@H]1C[C@H](Br)CN1C(=O)[C@@H](O)[C@H](Cc1ccccc1)NC(=O)[C@H](CC(N)=O)NC(=O)OCc1ccccc1`
A) 100 to 105 °C

Q) Fill in: melting point of O=C1CC(Cc2ccccc2Cl)CN1 (centres undefined) is ___
A) 87 to 89 °C

Q) I'd like to know its melting point. The compound in question is COc1cc2ncc(C#N)c(Nc3ccc(F)c(Cl)c3)c2cc1NC(=O)C=CCN1C(C)CCC1C (centres undefined)
A) 110 to 113 °C
